Target system: LNX1_2, Q8TBB1
Sequence (Q8TBB1 371-470): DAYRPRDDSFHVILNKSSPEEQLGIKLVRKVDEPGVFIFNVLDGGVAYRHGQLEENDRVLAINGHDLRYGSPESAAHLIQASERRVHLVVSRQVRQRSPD
Procedure details: holdup assay
Set-up: key: below the threshold = too weak to quantify, mostly under pKd 3.1 to 4
Condition label: plain residues with an end cap or a label only (N-terminal biotin on a linker: ahx)
Assay endpoint: pKd

// solved cases for pKd follow
[[record]]
binder = "PSASCAVTAA [PDLIM4, P50479;P50479-2]"
measurement = "below the threshold"

[[record]]
binder = "RRRKRKRTYL [HPV49-L2, P36762]"
measurement = "below the threshold"

[[record]]
binder = "LSDPSVSTVV [GRIN1, Q05586;Q05586-2]"
measurement = "below the threshold"

[[record]]
binder = "HNAFLSVTTV [PDZRN4, Q6ZMN7]"
measurement = 3.65

[[record]]
binder = "TVICWPGSLV [LNX2, Q8N448]"
measurement = 3.99

[[record]]
binder = "NRKREIFSNF [NHERF2, Q15599]"
measurement = "below the threshold"

[[record]]
binder = "SDSSGQEYSL [KCTD3, Q9Y597]"
measurement = "below the threshold"

[[record]]
binder = "ESLLLGPSNF [SHROOM4, Q9ULL8]"
measurement = "below the threshold"

[[record]]
binder = "RAVEEEESRF [PSCDBP, O60759]"
measurement = "below the threshold"


Query string: Identify measured pKd associated with GYDWGPATDL [TJP3, O95049]
Result string: below the threshold
